target: HDAC2 (Homo sapiens, UniProt Q92769); construct: purchased Reaction Biology Corporation (assay run by the CRO); assay: HDAC2 inhibition, full IC50 measurement (Reaction Biology; fluorogenic p53 peptide RHKK(Ac)AMC); type: biochemical; conditions: Conc. 4.57E-09 M, t2
Sequence (Q92769 whole entry): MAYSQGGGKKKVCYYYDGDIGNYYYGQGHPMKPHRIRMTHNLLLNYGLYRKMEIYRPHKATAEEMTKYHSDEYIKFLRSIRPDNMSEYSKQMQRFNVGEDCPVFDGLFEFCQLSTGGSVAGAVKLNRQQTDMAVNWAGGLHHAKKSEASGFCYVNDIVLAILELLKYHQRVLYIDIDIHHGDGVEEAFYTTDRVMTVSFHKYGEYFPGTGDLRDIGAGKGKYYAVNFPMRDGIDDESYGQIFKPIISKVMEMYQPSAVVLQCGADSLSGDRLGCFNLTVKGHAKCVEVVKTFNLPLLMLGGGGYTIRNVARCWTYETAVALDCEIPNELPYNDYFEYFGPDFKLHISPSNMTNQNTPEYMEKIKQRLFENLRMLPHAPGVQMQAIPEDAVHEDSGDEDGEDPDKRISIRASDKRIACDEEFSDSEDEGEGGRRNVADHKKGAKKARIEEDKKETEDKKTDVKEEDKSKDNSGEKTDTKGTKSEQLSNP
Peptide text beside a SMILES is read from it.
Attribute: HDAC2 activity raw data (signal)

molecule: N=C(N)NCCC[C@@H]1NC(=O)[C@H](Cc2c[nH]c3ccccc23)NC(=O)[C@H](CC(=O)O)NC(=O)[C@@H](CO)NC(=O)[C@H](Cc2c[nH]c3ccccc23)NC(=O)[C@H](CCCCCS)NC(=O)[C@H](CCC(N)=O)NC1=O [des4.1.0, SHA-Trp-dSer-Asp-Trp-Arg-Gln] (HELM PEPTIDE1{D.W.R.Q.[O=C([C@H](CCCCCS)N[*:1])[*:2]].W.[dS]}$PEPTIDE1,PEPTIDE1,1:R1-7:R2$$$V2.0)
HDAC2 activity raw data (signal): 1793366
//
molecule: CCCC[C@H]1NC(=O)[C@H](Cc2ccccc2)NC(=O)[C@H](CCCCCS)NC(=O)[C@@H](CCCNC(=N)N)NC(=O)[C@H](C)NC(=O)[C@@H](CO)NC(=O)[C@@H](C)NC(=O)[C@H](CCCCN)NC1=O [des4.3.1.3, SHA-Phe-dNle-Lys-dAla-dSer-Ala-dArg] (HELM PEPTIDE1{A.[dR].[O=C([C@H](CCCCCS)N[*:1])[*:2]].F.[CCCC[C@@H](N[*:1])C(=O)[*:2]].K.[dA].[dS]}$PEPTIDE1,PEPTIDE1,1:R1-8:R2$$$V2.0)
HDAC2 activity raw data (signal): 1632561
//
molecule: CCCC[C@H]1NC(=O)[C@H](Cc2ccccc2)NC(=O)[C@H](CCCCCS)NC(=O)[C@@H](CO)NC(=O)[C@H](CC(=O)O)NC(=O)[C@@H](CO)NC(=O)[C@@H](C)NC(=O)[C@H](CCCCN)NC1=O [des4.3.1.1, SHA-Phe-dNle-Lys-dAla-dSer-Asp-dSer] (HELM PEPTIDE1{D.[dS].[O=C([C@H](CCCCCS)N[*:1])[*:2]].F.[CCCC[C@@H](N[*:1])C(=O)[*:2]].K.[dA].[dS]}$PEPTIDE1,PEPTIDE1,1:R1-8:R2$$$V2.0)
HDAC2 activity raw data (signal): 1855125

----------
Attribute: HDAC6 activity raw data (signal)
biological target: HDAC6 (Homo sapiens, UniProt Q9UBN7); construct: purchased Reaction Biology Corporation (assay run by the CRO); assay: HDAC6 inhibition, full IC50 measurement (Reaction Biology; fluorogenic p53 peptide RHKK(Ac)AMC); type: biochemical; conditions: Conc. 5.08E-10 M, t2
Sequence (Q9UBN7 whole entry): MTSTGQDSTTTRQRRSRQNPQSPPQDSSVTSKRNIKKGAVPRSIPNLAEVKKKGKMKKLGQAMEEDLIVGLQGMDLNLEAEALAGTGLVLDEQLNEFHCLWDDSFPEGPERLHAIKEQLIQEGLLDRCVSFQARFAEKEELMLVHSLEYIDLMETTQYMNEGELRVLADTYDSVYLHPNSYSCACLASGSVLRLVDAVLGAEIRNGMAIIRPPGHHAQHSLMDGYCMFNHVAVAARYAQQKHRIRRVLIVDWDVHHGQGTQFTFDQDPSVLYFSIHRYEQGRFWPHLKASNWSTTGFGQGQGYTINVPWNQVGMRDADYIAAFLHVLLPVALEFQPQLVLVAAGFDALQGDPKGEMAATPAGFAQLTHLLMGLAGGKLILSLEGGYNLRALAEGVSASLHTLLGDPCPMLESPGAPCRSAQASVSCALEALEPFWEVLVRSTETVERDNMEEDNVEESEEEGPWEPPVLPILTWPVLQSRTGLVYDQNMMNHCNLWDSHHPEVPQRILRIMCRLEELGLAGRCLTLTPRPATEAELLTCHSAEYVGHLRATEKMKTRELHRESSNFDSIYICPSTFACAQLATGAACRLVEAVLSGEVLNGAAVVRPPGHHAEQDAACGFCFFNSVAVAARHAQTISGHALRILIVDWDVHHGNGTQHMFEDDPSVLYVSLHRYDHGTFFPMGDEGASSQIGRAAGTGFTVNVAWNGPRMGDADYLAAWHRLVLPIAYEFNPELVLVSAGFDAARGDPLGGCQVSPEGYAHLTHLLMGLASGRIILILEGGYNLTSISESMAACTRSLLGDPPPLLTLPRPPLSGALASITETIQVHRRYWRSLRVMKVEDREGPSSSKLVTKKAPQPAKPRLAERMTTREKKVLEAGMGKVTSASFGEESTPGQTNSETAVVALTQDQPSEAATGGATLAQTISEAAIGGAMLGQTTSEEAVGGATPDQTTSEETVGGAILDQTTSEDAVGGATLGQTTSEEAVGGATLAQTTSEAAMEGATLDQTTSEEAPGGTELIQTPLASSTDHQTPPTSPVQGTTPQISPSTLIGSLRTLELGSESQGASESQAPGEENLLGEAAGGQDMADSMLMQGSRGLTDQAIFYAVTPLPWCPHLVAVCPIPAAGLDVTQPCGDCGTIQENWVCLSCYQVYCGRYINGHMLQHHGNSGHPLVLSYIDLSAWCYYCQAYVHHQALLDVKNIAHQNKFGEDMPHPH
Peptide text beside a SMILES is read from it.
measure: HDAC6 activity raw data (signal)

molecule: CCCC[C@H]1NC(=O)[C@H](CC(=O)O)NC(=O)[C@@H](CO)NC(=O)[C@@H](C)NC(=O)[C@H](CCCCN)NC(=O)[C@@H](CCCCN)NC(=O)[C@H](Cc2ccccc2)NC(=O)[C@H](CCCCCS)NC1=O [des4.3.1.2, SHA-Phe-dLys-Lys-dAla-dSer-Asp-dNle] (HELM PEPTIDE1{D.[CCCC[C@@H](N[*:1])C(=O)[*:2]].[O=C([C@H](CCCCCS)N[*:1])[*:2]].F.[dK].K.[dA].[dS]}$PEPTIDE1,PEPTIDE1,1:R1-8:R2$$$V2.0)
tested.system: HDAC6 (Homo sapiens, UniProt Q9UBN7)
experimental.result: 1739375

molecule: NCCCC[C@H]1NC(=O)[C@H](CCC(N)=O)NC(=O)[C@H](CCC(=O)O)NC(=O)[C@@H]2CCCN2C(=O)[C@H](CC(N)=O)NC(=O)[C@H](CCCCCS)NC(=O)CNC(=O)[C@H](Cc2c[nH]c3ccccc23)NC1=O [des1.1.1, SHA-Asn-Pro-Glu-Gln-dLys-Trp-Gly] (HELM PEPTIDE1{E.Q.[dK].W.G.[O=C([C@H](CCCCCS)N[*:1])[*:2]].N.P}$PEPTIDE1,PEPTIDE1,1:R1-8:R2$$$V2.0)
tested.system: HDAC6 (Homo sapiens, UniProt Q9UBN7)
experimental.result: 570888

molecule: N=C(N)NCCC[C@@H]1NC(=O)[C@@H](CCCNC(=N)N)NC(=O)[C@H]2CCCN2C(=O)[C@@H](Cc2c[nH]cn2)NC(=O)[C@H](Cc2ccc(O)cc2)NC(=O)[C@H](CCCCCS)NC(=O)[C@H](CCc2ccccc2)NC(=O)[C@@H](CO)NC(=O)[C@H](CC(=O)O)NC1=O [des3.3.1, SHA-Tyr-dHis-dPro-dArg-Arg-Asp-dSer-C27] (HELM PEPTIDE1{[O=C([C@H](CCCCCS)N[*:1])[*:2]].Y.[dH].[dP].[dR].R.D.[dS].[O=C([C@H](CCc1ccccc1)N[*:1])[*:2]]}$PEPTIDE1,PEPTIDE1,1:R1-9:R2$$$V2.0)
tested.system: HDAC6 (Homo sapiens, UniProt Q9UBN7)
experimental.result: 154121

molecule: C[C@H](O)[C@H]1NC(=O)[C@H](Cc2c[nH]c3ccccc23)NC(=O)[C@H](CCCCCS)NC(=O)[C@H](CCCCN)NC(=O)[C@@H](CC(=O)O)NC(=O)[C@@H](CCCCN)NC(=O)[C@@H](CO)NC(=O)[C@H](CC(N)=O)NC(=O)[C@H](CC(=O)O)NC1=O [des2.1.0, SHA-Trp-dThr-Asp-Asn-dSer-dLys-dAsp-Lys] (HELM PEPTIDE1{D.N.[dS].[dK].[dD].K.[O=C([C@H](CCCCCS)N[*:1])[*:2]].W.[dT]}$PEPTIDE1,PEPTIDE1,1:R1-9:R2$$$V2.0)
tested.system: HDAC6 (Homo sapiens, UniProt Q9UBN7)
experimental.result: 536924

molecule: CC(C)C[C@H]1NC(=O)[C@H](Cc2c[nH]c3ccccc23)NC(=O)[C@H](CCCCCS)NC(=O)[C@@H](Cc2ccc(O)cc2)NC(=O)[C@@H](C(C)C)NC(=O)[C@H](Cc2c[nH]cn2)NC(=O)CNC(=O)CNC(=O)[C@@H](CO)NC1=O [des2.2.0, SHA-Trp-dLeu-dSer-Gly-Gly-His-dVal-dTyr] (HELM PEPTIDE1{G.G.H.[dV].[dY].[O=C([C@H](CCCCCS)N[*:1])[*:2]].W.[dL].[dS]}$PEPTIDE1,PEPTIDE1,1:R1-9:R2$$$V2.0)
tested.system: HDAC6 (Homo sapiens, UniProt Q9UBN7)
experimental.result: 162548
